Data credit: patent US8815857B2

ASSAY: Assessment of solubility: HT solubility in pION buffer, UV spectrophotometry
CONDITION_LABEL: pION system solution buffer, pH 7.4, pH 7.4, aqueous buffer, kinetic from dmso stock, Solubility (pH 7.4), pH 7.4 buffer, 16-19 h incubation, 1.0% DMSO
ATTRIBUTE_MEASURED: solubility

1. Cc1cc(CN2CCOCC2)ccc1COc1ccccc1-c1csc(N2CCC(C(=O)O)CC2C(F)(F)F)n1 (stereo not shown)	> 57 µg/mL
2. COCCN(C)Cc1ccc(COc2ccc(C)cc2-c2csc(N3CCC(C(=O)O)CC3)n2)c(C)c1	> 63 µg/mL

Turning to the following compound.
Per the records, this compound ( Cc1cc(CN2CCC(C(=O)N(C)C)CC2)ccc1COc1c(C)cccc1-c1csc(N2CCC(C(=O)O)CC2)n1 ) has solubility equal to > 68 µg/mL

###

SYSTEM_NAME: Recombinant human soluble guanylate cyclase (sGC), alpha 1 / beta 1 subunits, heme-free (Homo sapiens, UniProt Q02108+Q02153)
Construct: histidine tag (C); made in house; host or cells: Sf9 insect cells (baculovirus coinfection)
Sequence (Q02108 whole entry partner): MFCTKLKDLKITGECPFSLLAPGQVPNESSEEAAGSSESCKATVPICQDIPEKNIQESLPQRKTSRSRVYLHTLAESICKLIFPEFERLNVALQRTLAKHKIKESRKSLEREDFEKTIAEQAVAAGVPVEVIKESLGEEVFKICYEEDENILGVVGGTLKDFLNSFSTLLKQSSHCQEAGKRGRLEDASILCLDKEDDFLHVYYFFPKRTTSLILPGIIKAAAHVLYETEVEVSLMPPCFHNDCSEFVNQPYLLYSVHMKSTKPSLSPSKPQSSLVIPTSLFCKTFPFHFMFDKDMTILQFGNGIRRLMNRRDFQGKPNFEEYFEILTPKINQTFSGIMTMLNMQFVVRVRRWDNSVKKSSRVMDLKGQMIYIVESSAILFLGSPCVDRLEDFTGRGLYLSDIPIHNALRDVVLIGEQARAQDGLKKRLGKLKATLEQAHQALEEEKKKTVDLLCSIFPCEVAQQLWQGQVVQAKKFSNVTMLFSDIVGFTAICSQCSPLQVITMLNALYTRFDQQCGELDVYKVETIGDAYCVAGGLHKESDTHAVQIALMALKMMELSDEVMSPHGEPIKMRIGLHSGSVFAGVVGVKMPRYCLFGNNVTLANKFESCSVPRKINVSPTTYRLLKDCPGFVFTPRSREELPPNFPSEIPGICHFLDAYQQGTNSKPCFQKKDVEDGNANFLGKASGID
Sequence (Q02153 whole entry): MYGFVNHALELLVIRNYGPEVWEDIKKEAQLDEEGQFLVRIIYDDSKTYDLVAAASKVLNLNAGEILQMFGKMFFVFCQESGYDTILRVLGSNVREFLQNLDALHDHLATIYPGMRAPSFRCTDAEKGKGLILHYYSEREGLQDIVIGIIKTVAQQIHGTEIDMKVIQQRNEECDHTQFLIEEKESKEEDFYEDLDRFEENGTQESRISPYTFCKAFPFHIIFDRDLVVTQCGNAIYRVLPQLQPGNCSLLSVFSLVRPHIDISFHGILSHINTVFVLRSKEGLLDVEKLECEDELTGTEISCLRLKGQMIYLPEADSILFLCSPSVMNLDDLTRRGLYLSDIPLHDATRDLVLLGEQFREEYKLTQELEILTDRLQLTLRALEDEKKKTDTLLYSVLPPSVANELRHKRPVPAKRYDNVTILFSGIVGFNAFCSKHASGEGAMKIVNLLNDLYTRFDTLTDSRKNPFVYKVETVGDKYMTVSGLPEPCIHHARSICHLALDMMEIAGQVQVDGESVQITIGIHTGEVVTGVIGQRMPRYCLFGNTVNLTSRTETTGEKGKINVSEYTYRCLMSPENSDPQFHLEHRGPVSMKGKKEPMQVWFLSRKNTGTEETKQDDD
ASSAY: Molecular assay: cGMP formation by heme-free recombinant sGC (CisBio cGMP detection kit)
Type: biochemical
CONDITION_LABEL: 300 pM heme-free sGC, 37° C., 60 min, cGMP readout; read-out: EC50 nM, Activity of Compounds in Molecular Assay
ATTRIBUTE_MEASURED: EC50 (nM)

1. Cc1cc(C(=O)N2CCCCC2)ccc1COc1ccc(F)cc1-c1csc(C2=CCC(C(=O)O)CC2)n1 (stereo not drawn) [Compound 48]	360
2. Cc1ccc(OCc2ccc(CNC3CCCCC3)cc2C)c(-c2csc(N3CCC(C(=O)O)CC3)n2)c1 [Compound 45]	730
3. Cc1ccc(OCc2ccc(C(=O)N3CCCCC3)cc2C)c(-c2csc(N3CCC(C(=O)O)CC3C)n2)c1 (stereo not drawn) [Compound 73]	7.6

(a) Cc1ccc(OCc2ccc(C(=O)N(C)C)cc2C)c(-c2csc(N3CCC(C(=O)O)CC3)n2)c1 [Compound 294]
(b) COCCN(C)Cc1ccc(COc2ccc(C#N)cc2-c2csc(N3CCC(C(=O)O)CC3)n2)c(C)c1 [Compound 171]
(c) Cc1ccc(OCc2ccc(CNCC(C)(C)O)cc2C)c(-c2csc(N3CCC(C(=O)O)CC3)n2)c1 [Compound 25]
(d) Cc1ccc(OCc2ccc(C(=O)N3CCOCC3)cc2C#N)c(-c2csc(N3CCC(C(=O)O)CC3)n2)c1 [Compound 70]
Kindly order the items shown according to EC50, from the highest value down. Thanks in advance for listing the labels in the requested order.
b, c, a, d
(b: 2400 nM, c: 1300 nM, a: 290 nM, d: 180 nM)

(A) Cc1cc(CN2CCC(C(=O)N(C)C)CC2)ccc1COc1c(C)cccc1-c1csc(N2CCC(C(=O)O)CC2)n1 [Compound 134]
(B) Cc1cc(CN2CCOCC2)ccc1COc1c(Cl)cccc1-c1csc(N2CCC(C(=O)O)CC2)n1 [Compound 62]
(C) Cc1ccc(OCc2ccc(CN3CCS(=O)(=O)CC3)cc2C)c(-c2csc(N3CC4CCC(C3)C4C(=O)O)n2)c1 (stereo not drawn) [Compound 136]
(D) Cc1cc(CN2CCS(=O)(=O)CC2)ccc1COc1ccccc1-c1csc(N2CCC(C(=O)O)C(C(F)(F)F)C2)n1 (stereo not drawn) [Compound 150]
Kindly order the items shown according to EC50, from the highest value down. Thanks in advance for listing the labels in the requested order.
A, D, B, C
(A: 1800 nM, D: 1200 nM, B: 22 nM, C: 6.1 nM)

(A) Cc1ccc(OCc2ccc(CN3CCS(=O)(=O)CC3)cc2C)c(-c2csc(N3CCC(C(=O)O)C(C)C3)n2)c1 (stereo not drawn) [Compound 204]
(B) Cc1ccc(OCc2ccc(CN3CCOCC3)cc2C)c(-c2csc(N3CCC(C(=O)O)CC3)n2)c1 [Compound 20]
Identify the item whose EC50 is the smaller number: A or B Reply with the label of the item you choose.
A
(A: 28 nM, B: 140 nM)
